System: HIV (HTLV-IIIB strain)
procedure.text: HIV replication inhibition assay (Test Example 1; MT-4 cells, MTT)
Type: cell-based
condition.label: Human immunodeficiency virus 1, MT4, 96 h; HIV (HTLV-IIIB strain), MT-4 cells, MTT, four days; read-out: EC90
measurement.type: EC90 (nM)
Write the number in nM without appending the unit.

Qu. Name the recorded EC90 for Cc1cnc(N2CCn3c(C)cc4c(-c5ccc(Cl)cc5)c([C@H](OC(C)(C)C)C(=O)O)c(C)c2c43)nc1 .
Ans. 1.3

Qu. Name the recorded EC90 for Cc1ccc(-c2c([C@H](OC(C)(C)C)C(=O)O)c(C)c3c4c2cc(C)n4CCN3)cc1 .
Ans. 40

Qu. Name the recorded EC90 for CCOc1cnc(N2CCn3c(C)cc4c(-c5ccc(Cl)cc5)c([C@H](OC(C)(C)C)C(=O)O)c(C)c2c43)nc1 .
Ans. 2.3

Qu. Name the recorded EC90 for Cc1c([C@H](OC(C)(C)C)C(=O)O)c(-c2ccc(Cl)cc2)c2cc(C)n3c2c1N(CCN(C)C)[C@H](C)C3 .
Ans. 11
